Provenance of the data: patent US10695322B2

biological target: LdtMab2, wild-type (MAB_1530, orthologue of LdtMt2; fragment without putative transmembrane domain) (Mycobacteroides abscessus); assay: biochemical; settings: Figure 6; ITC, wt, protein 150 μM, ligand 2 mM, pH 8.0, 24° C.
Sequence (B1MMQ4 32-406): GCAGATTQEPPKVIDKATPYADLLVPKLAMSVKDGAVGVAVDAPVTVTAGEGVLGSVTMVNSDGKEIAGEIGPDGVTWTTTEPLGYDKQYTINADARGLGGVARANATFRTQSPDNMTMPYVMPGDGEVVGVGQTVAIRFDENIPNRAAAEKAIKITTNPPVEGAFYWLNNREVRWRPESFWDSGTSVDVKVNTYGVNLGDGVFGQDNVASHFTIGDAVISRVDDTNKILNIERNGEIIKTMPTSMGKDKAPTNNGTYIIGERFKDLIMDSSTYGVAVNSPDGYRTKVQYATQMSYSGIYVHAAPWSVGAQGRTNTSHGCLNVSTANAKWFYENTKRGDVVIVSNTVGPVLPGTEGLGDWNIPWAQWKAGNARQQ
Observed Property: pKd
In plain terms, pKd is the concentration in mol/L turned into minus its base-10 logarithm.

Just so you know, measured pKd for C[C@@H](O)[C@H]1C(=O)N2C(C(=O)O)=C(SC3CN(C4=NCCS4)C3)[C@H](C)[C@H]12 came out at 5.21

* * *

biological target: LdtMt2 (Mycobacterium tuberculosis); assay: biochemical; parameters: species or system M. tuberculosis; conditions: 10 μM LdtMt2, MES pH 6.5, 10° C.
Sequence (I6Y9J2 56-408 limits assumed): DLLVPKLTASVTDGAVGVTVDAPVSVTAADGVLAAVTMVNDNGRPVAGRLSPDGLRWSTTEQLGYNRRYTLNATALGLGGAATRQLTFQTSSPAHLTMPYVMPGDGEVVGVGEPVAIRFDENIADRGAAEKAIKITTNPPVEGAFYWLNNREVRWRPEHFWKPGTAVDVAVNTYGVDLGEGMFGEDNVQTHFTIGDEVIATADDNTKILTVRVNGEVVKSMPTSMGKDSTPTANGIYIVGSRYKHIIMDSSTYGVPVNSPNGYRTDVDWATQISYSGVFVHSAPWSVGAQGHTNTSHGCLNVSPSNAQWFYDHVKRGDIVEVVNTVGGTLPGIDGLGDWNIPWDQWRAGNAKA
Observed Property: Kapp (µM)
Please reply with the bare figure in µM and do not write the unit itself.

// known answers, use as guide
| Compound | Kapp / µM |
| --- | --- |
| C[C@@H](O)[C@H]1C(=O)N2C(C(=O)O)=C(SC3CN(C4=NCCS4)C3)[C@H](C)[C@H]12 | 38.4 |
| C[C@@H](O)[C@H]1C(=O)N2C(C(=O)O)=C([C@H]3CCCO3)S[C@H]12 | 49.2 |
| CSC1=C(C(=O)O)N2C(=O)[C@H]([C@@H](C)O)[C@H]2[C@H]1C | 20.8 |
| C[C@@H](O)[C@H]1C(=O)N2C(C(=O)O)=C(SCC(=O)OC3CCCCC3)[C@H](C)[C@H]12 | 4.8 |

Now look at this one.
Just so you know, measured Kapp for C[C@@H](O)[C@H]1C(=O)N2C(C(=O)[O-])=C(SC3Cn4cnc[n+]4C3)[C@H](C)[C@H]12 (some centres unmarked) came out at 15.3
